Values compiled from ChEMBL document CHEMBL4229474.

# system-name: Alpha-ketoglutarate-dependent dioxygenase alkB homolog 3 (Homo sapiens, UniProt Q96Q83)
# Sequence (Q96Q83 whole entry): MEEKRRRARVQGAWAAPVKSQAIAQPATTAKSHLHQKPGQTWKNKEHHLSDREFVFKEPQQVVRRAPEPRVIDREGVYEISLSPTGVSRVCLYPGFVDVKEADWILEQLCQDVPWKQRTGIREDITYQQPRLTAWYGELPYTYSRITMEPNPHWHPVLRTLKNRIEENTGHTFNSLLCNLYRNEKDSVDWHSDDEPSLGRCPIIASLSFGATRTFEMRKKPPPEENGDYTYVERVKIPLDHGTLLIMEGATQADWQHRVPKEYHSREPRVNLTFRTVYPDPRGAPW
# procedure-details: Inhibition of recombinant human AlkBH3 assessed as reduction in formaldehyde release using 40-mer single N3-meC as substrate incubated for 60 mins followed by substrate addition measured after 15 mins by fluorescence assay
pIC50: −log10 of the molar value.
property-label: pIC50

Prompt line: May I ask what pIC50 has been recorded for `Cc1ccc2c(c1)C(c1ccccc1)=C(Br)C2=O` ?
Response line: < 4.30

====

Known IC50 of a selection of compounds
# system-name: Alpha-ketoglutarate-dependent dioxygenase alkB homolog 3 (Homo sapiens)
# procedure-details: Inhibition of recombinant human AlkBH3 assessed as reduction in formaldehyde release using 40-mer single N3-meC as substrate incubated for 60 mins followed by substrate addition measured after 15 mins by fluorescence assay

Example results:
INSERT INTO assay_data (chemical_smiles, property_label, result_value) VALUES
  ('O=C1C(c2ccccc2)=C(c2ccccc2)c2cc(-c3ccccc3)ccc21', 'IC50', '> 50 µM'),
  ('COc1ccc(C2=C(Br)C(=O)c3ccc(C)cc32)cc1', 'IC50', '43.2 µM');

Prompt line: Query the reported IC50 for Alpha-ketoglutarate-dependent dioxygenase alkB homolog 3 (Homo sapiens); item: `Cc1ccc2c(c1)C(c1cccc3ccccc13)=C(Br)C2=O`
Response line: > 50 µM

Prompt line: For `COc1ccc(C2=C(c3ccc(OC)c(OC)c3)c3cc(-c4ccc(C)cc4)ccc3C2=O)cc1OC` then?
Response line: > 50 µM

Prompt line: Ok, now `Cc1ccc(C2=C(Br)C(=O)c3ccc(C)cc32)cc1`
Response line: > 50 µM

Prompt line: Next compound up: `COc1ccc(C2=C(Cl)C(=O)c3ccc(C)cc32)cc1`
Response line: > 50 µM

Prompt line: Similarly, `COc1ccc(C2=C(c3ccc(OC)c(OC)c3)c3cc(C)ccc3C2=O)cc1OC` ?
Response line: > 50 µM

Prompt line: // same read-out, input: `COc1cccc(C2=C(c3cccc(OC)c3)c3cc(-c4ccc(C)cc4)ccc3C2=O)c1`
Response line: 13.1 µM

Prompt line: Request: `COc1cccc(C2=C(c3cccc(OC)c3)c3cc(C)ccc3C2=O)c1`
Response line: > 50 µM
